Tested on: BT-549 breast
Assay: NCI-60 one-dose screen, 48 h
Conditions: 10 µM unless noted
Protocol: Growth inhibition of the BT-549 human tumor cell line is measured as a screen for anti-cancer activity. Cells are grown in 96 well plates and exposed to the test compound for 48 hours. Compounds are tested at a single concentration, which is 10^-5 M for most compounds. The reported endpoint is percent growth (GI% or GIPRCNT), where numbers from 0 - 100% represent growth inhibition, and numbers from -100% - 0 represent cell death. For example, a value of 40 represents 60% growth inhibition. […]
The panel holds about 83,000 compounds, 20% with a hit somewhere; the sample as a whole holds those more often. Calls of active or inactive are those of the source. The calls were made as follows: active = growth percent below 10; inactive = the rest.
Outcomes you can answer with include only these: active, inactive

Examples from the recorded data:
COMPOUND	ASSIGNED_LABEL
COc1ccc(-c2nc(Nc3ccc(F)cc3)nc(Nc3ccc4c(c3)nc(C)n4Cc3ccccc3)n2)cc1	inactive
COc1cc(/C=N/NC(=O)c2cnn3c2NC(c2ccccc2)C3)ccc1OC1CCCC1 (configuration not stated)	inactive
c1ccc2cc(Cn3c(-c4ccc5ccccc5c4)[n+](Cc4ccc5ccccc5c4)c4ccccc43)ccc2c1	active
N#CCCN1CCN(CCC#N)C1=S	inactive
CN(C)c1ccc(/C=C(\C#N)c2cc3ccccc3n2C)cc1	inactive
CN1CCN(CCCn2c3c(sc4ncccc43)c(=O)n3nnc(-c4ccccc4)c23)CC1	inactive

## Input Recorded test outcome, item `O=C(CCCCCCC(=O)Nc1ccc2c(c1)/C(=C/c1ccc[nH]1)C(=O)N2)NO`
## Output inactive

## Input Please indicate how the test categorized COc1cccc(C2C3=C(COC3=O)N(CCO)c3cc4c(cc32)CCC4)c1 (configuration not stated) .
## Output active

## Input Test call for this compound, please: `Nc1cccc2c(=S)c3ccccc3[nH]c12`
## Output inactive

## Input For this compound, state the assay outcome: `CC(=O)OC[C@]1(C)C=C2C(=O)[C@](C)(O)C3(CC3)C(C)=C2[C@H]1OC(C)=O`
## Output inactive

## Input // outcome(item) with item = `O=C(NCc1ccco1)C1CCN(S(=O)(=O)c2ccc(Cl)cc2)CC1`
## Output inactive

---

Test system: LOX IMVI melanoma
Test: NCI-60 one-dose screen, 48 h
Settings: 10 µM unless noted
The panel holds about 83,000 compounds, 20% with a hit somewhere; the sample as a whole holds those more often. The source made the active and inactive calls. How the source made its calls: active means growth percent below 10; inactive means the rest.
Outcome field: choose from true (1) = active, false (0) = inactive

Examples from the recorded data:
> print(dat)
                                   compound  assigned.label
1  COc1ccc(-c2c3c(N)c4c(nc3nc3c2c(C)nn3-c2ccccc2)CCCC4)cc1       false (0)
2  O=C(N/N=C(\CS(=O)(=O)c1ccccc1)c1cc2ccccc2oc1=O)c1ccccc1       false (0)
3  COc1cc(/C=N/NC(=O)c2cnn3c2NC(c2ccccc2)C3)cc(OC)c1OC (stereo not drawn)       false (0)
4  COc1ccc2nc(-n3nc(C)cc3C)c(-n3nc(C)cc3C)nc2c1       false (0)
5   NC(=O)c1cc(I)ccc1NC(=O)COc1ccc(Cl)cc1Cl       false (0)

## Input Dear colleague, could you share the recorded outcome for `O=C1C(Cl)=C(NCCCN2CCOCC2)C(=O)c2ccccc21` when you have a moment?
## Output false (0)

## Input Hey, what did the test say about `FC(F)(F)c1cc(CNc2nc(Cl)ncc2Br)cc(C(F)(F)F)c1` ?
## Output false (0)

## Input What classification did `COc1ccc(/C=C2\CN(Cc3cn(CCCNc4ccnc5cc(Cl)ccc45)nn3)C/C(=C\c3ccc(OC)c(OC)c3)C2=O)cc1OC` end up with in this test?
## Output true (1)

---

System: DU-145 prostate
Assay: NCI-60 one-dose screen, 48 h
Conditions: 10 µM unless noted
This is part of a sample that, as a whole, favours compounds with a hit. Of some 83,000 tested, about 20% had one in any assay. Active and inactive are the calls of the source. Rule for the calls: active = growth percent below 10; inactive = the rest.
Field 'call' accepts yes (1) (active), no (0) (inactive)

Consider the following illustrative entries.
> print(dat)
                        structure.as.smiles  assigned.label
1  COc1ccc(-c2nc3sccn3c2/C=C/C(=O)c2cc(OC)c(OC)c(OC)c2)cc1OC         yes (1)
2  Cc1ccc(S(=O)(=O)c2ccc3[nH]c(=O)[nH]c(=O)c3c2)cc1          no (0)

Now, please, on to the next compound.
## Input # fetch the recorded call for `CN1CCC(OC2c3ccccc3CCc3ccccc32)CC1` here
## Output no (0)

---

System: MDA-MB-231 breast
Experiment: NCI-60 one-dose screen, 48 h (100 = growth as untreated, 0 = no growth, -100 = all killed)
Conditions: 10 µM unless noted
This is part of a sample that, as a whole, favours compounds with a hit. Of some 83,000 tested, about 20% had one in any assay.
MEASURED_ENDPOINT: growth (%)
The reply should be a number in %, with the unit left off.

// worked examples, growth included
> print(dat)
                        structure.as.smiles  result.units  measured
1  CCCCCCCC/C=C\CCCCCCCCOc1cccc(CC(=O)NCC[N+](C)(C)C)c1             %      87.3
2  COc1cc(/C=C2\C(=O)N(c3c(Cl)cccc3Cl)c3ccccc32)cc(OC)c1O             %      72.4

## Input Report growth from MDA-MB-231 breast testing of `COc1ccc(-c2cc(=O)oc3c4c(ccc23)OCN(Cc2ccc(F)cc2)C4)cc1`
## Output 58.9

---

Test system: NCI-H460 lung
Assay: NCI-60 one-dose screen, 48 h (100 = growth as untreated, 0 = no growth, -100 = all killed)
Settings: 10 µM unless noted
The panel holds about 83,000 compounds, 20% with a hit somewhere; the sample as a whole holds those more often.
MEASURED_ENDPOINT: growth (%)
Numbers only here, please. The scale is %.

Known growth results, listed for orientation:
> print(dat)
                                   compound  measured.endpoint  measured
1   COc1cc(C(=O)N(C(C)C)C2CCCCC2)cc(OC)c1OC             growth       107
2  COc1ccc(-c2nc(Nc3ccc(F)cc3)nc(Nc3ccc4c(c3)nc(C)n4Cc3ccccc3)n2)cc1             growth      30.3
3  C[C@@H](Oc1cc(-c2cnn(C3CC4(CCCNC4)C3)c2)cnc1N)c1c(Cl)ccc(F)c1Cl (some centres not stated)             growth     0.489

## Input Using the record for `O=C1c2ccccc2C(=O)c2c(Nc3ccc(CCO)cc3)ccc(O)c21` , state its measured growth.
## Output 56

## Input Entry `Clc1cccc(Cl)c1Nc1ccc2nnc(-c3ccncc3)n2n1` needs its growth filled in; supply it.
## Output 106

## Input Provide only the value of recorded growth for CC1(C)CC(=O)C2=C(C1)Nc1cc3c(cc1C2c1ccc(F)cc1)OCO3 (configuration not stated)
## Output 103

---

Test system: MDA-MB-435 melanoma
Assay: NCI-60 one-dose screen, 48 h
Settings: 10 µM unless noted
The panel holds about 83,000 compounds, 20% with a hit somewhere; the sample as a whole holds those more often. Active and inactive are the calls of the source. Rule for the calls: active = growth percent below 10; inactive = the rest.
Log the outcome using a class from TRUE = active, FALSE = inactive

Observe how each entry below is paired with its result.
> print(dat)
                                   compound  assigned.label
1  O=C1/C(=C/c2ccc(Cl)cc2)CN(Cc2cn(CCCNc3ccnc4cc(Cl)ccc34)nn2)C/C1=C\c1ccc(Cl)cc1            TRUE
2  COc1cccc(-c2ccc3c(c2)C2CCN(Cc4ccccc4)C3C2)c1 (stereo not drawn)            TRUE

Switching to the query record.
## Input GET /call?item= `CCCCc1ccc(NC(=O)C(F)(F)F)cc1` returns the recorded outcome of this test.
## Output FALSE

---

Tested on: LOX IMVI melanoma
Experiment: NCI-60 one-dose screen, 48 h (100 = growth as untreated, 0 = no growth, -100 = all killed)
Conditions: 10 µM unless noted
Protocol: Growth inhibition of the LOX IMVI human tumor cell line is measured as a screen for anti-cancer activity. Cells are grown in 96 well plates and exposed to the test compound for 48 hours. Compounds are tested at a single concentration, which is 10^-5 M for most compounds. The reported endpoint is percent growth (GI% or GIPRCNT), where numbers from 0 - 100% represent growth inhibition, and numbers from -100% - 0 represent cell death. For example, a value of 40 represents 60% growth inhibition. […]
The panel holds about 83,000 compounds, 20% with a hit somewhere; the sample as a whole holds those more often.
MEASURED_ENDPOINT: growth (%)
Please give a number only; it is taken to be in %.

Past entries and their recorded results:
> print(dat)
                                   molecule  measured.endpoint  measured
1  O=C(Nc1ccc(Cl)c(Cl)c1)OCn1ncc2ccc([N+](=O)[O-])cc21             growth      78.8
2    O=C1C=CC(=O)N1CCCCCCCCCCN1C(=O)C=CC1=O             growth      42.9
3  COC(=O)/C=C1/CCC2C3CCC4=CC(=O)C(Br)CC4(C)C3C(=O)CC12C (stereo unspecified)             growth      38.2

## Input Please give the documented growth of COc1cc(C2C3=C(COC3=O)N(CCO)c3cc4c(cc32)OCO4)cc(OC)c1O (stereo unspecified)
## Output 40.1

## Input Determine its reported growth: `COc1cccc(OC(=O)c2ccccc2)c1OC(=O)c1ccccc1`
## Output 63

## Input # return recorded growth for input `CC(C)N1CCN(c2ccc(OC[C@H]3CO[C@](Cn4cncn4)(c4ccc(Cl)cc4Cl)O3)cc2)CC1`
## Output 86.5

## Input Using the record for `Clc1ccc(C2=Nc3cccc4cccc(c34)N2)cc1Cl` , state its measured growth.
## Output 84

## Input Give the measured growth for `Nc1cc2[nH]c(=O)c3ccccc3c2cc1Br`
## Output 74.5

## Input Given the molecule `CCOc1ccc(-c2cnnn2-c2nonc2-n2cccc2)cc1` , write its reported growth.
## Output 33.1

## Input Identify growth associated with the molecule `Cc1nc2cc(Nc3nc(Nc4ccc(F)cc4)nc(-c4ccc(Cl)cc4)n3)ccc2n1Cc1ccccc1`
## Output 76.6

## Input Give the reported growth for this molecule. `CSC1=CC(=O)c2ccccc2C1=O`
## Output 68.5
